- Tested system: Dual specificity mitogen-activated protein kinase kinase 1 (Homo sapiens);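 note: reported value is a mean percent inhibition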
- Experimental context: at 0.1 µM
Let's look at some compounds and their measured inhibition.
State the answer as a number, implicitly in %.

* Cc1cccc(Nc2ncc(-c3ccccc3)o2)c1 | 2.53
* CNC(=O)c1cncc(/C=C/c2ccccc2Cl)c1 | -0.39
* COc1ccc(-c2nn3ncccc3c2-c2ccnc(Nc3ccc4c(c3)OCCO4)n2)cc1 | 0.5
* NS(=O)(=O)c1ccc(N/N=C2\C(=O)Nc3ccc4ncccc4c32)cc1 | 14.3
* c1ccc(COc2ccc(Nc3ncnc4ccc(-c5ccco5)cc34)cc2)cc1 | 1.63
* CCN(CC)S(=O)(=O)c1ccc(OC)c(Nc2ncc(-c3ccccc3)o2)c1 | -0.08
* COc1ccc(-c2cc3c(N)ncnc3o2)cc1 | -0.07
* CC(=O)Nc1cccc(C#Cc2cncnc2Nc2ccc(OCc3cccc(F)c3)c(Cl)c2)c1 | 2.07
* COc1ccc2c(-c3ccnc(Nc4cccc(OC(F)(F)F)c4)n3)cnn2n1 | 6.37
* COc1ccc(-c2cc(-c3c[nH]nc3-c3ccccn3)ccn2)cc1 | 6.36

Consider CN1CCC(n2cnc(-c3ccc(F)cc3)c2-c2ccnc(N)n2)CC1 . Its measured inhibition is 3.26

Just so you know, measured inhibition for NS(=O)(=O)c1ccc(Nc2ncc(-c3ccccc3)o2)cc1 came out at 2.3

The recorded inhibition for entry Fc1ccc(-c2nn3ncccc3c2-c2ccnc(Nc3ccc4c(c3)OCCO4)n2)cc1 equals 5.8

So for CCCN1CCC(c2ccc(Nc3nc(Nc4cc(F)ccc4C(N)=O)c4cc[nH]c4n3)c(OC)c2)CC1 , the logged inhibition turned out to be 9.27

Please fill in: inhibition reported for CC(=O)NCc1cccc(C#Cc2cncnc2Nc2ccc(OCc3cccc(F)c3)c(Cl)c2)c1 = 1.45

Query NC(=O)c1sc(-n2cnc3ccc(C(F)(F)F)cc32)cc1OCc1ccccc1Br yields inhibition of 4.95

Note to self: inhibition recorded for c1cc(-c2cnn3nc(N4CCOCC4)ccc23)nc(NC2CC2)n1 was 4.84

----------
- Tested system: Tyrosine-protein kinase Lyn (Homo sapiens);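 note: kinase tested as its LYN B splice variant, values given as mean percent inhibition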
- Experimental context: at 1 µM
- Description: GSK_PKIS: LYN B (splice variant) mean inhibition at 1 uM [Nanosyn]
Tag: Criterion met if measured inhibition is not below 5%, Criterion not met if it is.

• Cc1cccc2c1NC(=O)/C2=N\Nc1ccc(S(N)(=O)=O)cc1 = Criterion not met
• Nc1nc(-c2cccc(Cl)c2)c(-c2ccc3ncccc3n2)s1 = Criterion met
• COc1cc2ncn(-c3cc(OCc4ccccc4C(F)(F)F)c(C(=O)N(C)C)s3)c2cc1OC = Criterion met
• Fc1ccc(-c2nn3ccccc3c2-c2ccncc2)cc1 = Criterion not met

Shifting focus to the molecule that follows.
In plain terms: is recorded inhibition at least 5% for COc1cc(Nc2nccc(Nc3ccc4c(C)n[nH]c4c3)n2)cc(OC)c1OC ?
Criterion met

----------
- Tested system: Aurora kinase C (Homo sapiens) (UniProt Q9UQB9)
- Sequence (Q9UQB9 whole entry): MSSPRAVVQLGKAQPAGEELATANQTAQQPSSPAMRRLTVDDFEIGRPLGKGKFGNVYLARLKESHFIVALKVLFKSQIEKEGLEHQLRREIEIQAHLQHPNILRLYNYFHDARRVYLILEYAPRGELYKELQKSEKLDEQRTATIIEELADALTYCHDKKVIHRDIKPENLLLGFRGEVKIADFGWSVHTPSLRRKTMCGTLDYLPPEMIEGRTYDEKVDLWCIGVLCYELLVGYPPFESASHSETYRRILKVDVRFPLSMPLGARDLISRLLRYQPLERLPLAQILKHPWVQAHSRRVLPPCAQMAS
- Experimental context: at 0.1 µM
Endpoint: inhibition (%)
Give the value, in units of %, as a plain number.

Known results for compounds:
- COc1ccc(CNC(=O)c2ccc(-c3cc(-c4nnc(C)o4)ccc3C)cc2)cc1: 2.85
- Cc1ccc(O)cc1Nc1ccnc2cc(-c3ccccn3)ccc12: 6.76

inhibition of CCNC(=O)O[C@H]1CN[C@H](C#Cc2cc3ncnc(Nc4ccc(OCc5cccc(F)c5)c(Cl)c4)c3s2)C1 , assay on Aurora kinase C (Homo sapiens) (UniProt Q9UQB9), is 1.85

Considering CN(C)CCOc1ccc(-c2nc(-c3ccncc3)c(-c3ccc4c(c3)CC/C4=N\O)[nH]2)cc1 , its inhibition with Aurora kinase C (Homo sapiens) (UniProt Q9UQB9) was recorded as 1.74

Response field inhibition (Aurora kinase C (Homo sapiens) (UniProt Q9UQB9)) for item CCn1c(-c2nonc2N)nc2ccccc21 : -0.58

Observed inhibition, Aurora kinase C (Homo sapiens) (UniProt Q9UQB9), Cc1ccc2c(-c3ccnc(Nc4ccccc4)n3)c(-c3ccc(F)cc3)nn2n1 : 2.67

Reported inhibition (Aurora kinase C (Homo sapiens) (UniProt Q9UQB9)) for entry NC(=O)c1sc(-n2cnc3ccc(C(F)(F)F)cc32)cc1OCc1ccccc1Br is -0.7

Known value: Aurora kinase C (Homo sapiens) (UniProt Q9UQB9) inhibition of the compound COc1cc2c(cc1Nc1nc(Nc3ccsc3C(N)=O)c3cc[nH]c3n1)N(C(=O)CN(C)C)CCC2(C)C equals 4.7

Entry COC(=O)Nc1nc2ccc(Oc3ccc(NC(=O)Nc4cccc(Cl)c4)cc3)cc2[nH]1 , Aurora kinase C (Homo sapiens) (UniProt Q9UQB9) data, inhibition value: 16.6

Field inhibition (Aurora kinase C (Homo sapiens) (UniProt Q9UQB9)), entry COc1ccc(-c2cc3c(N)ncnc3o2)cc1 : 1.13
